Note to self: melting point under 100 °C means t, ties and anything higher get f.

molecule="Cc1ccc2oc3c(c2c1)-c1oc(C)cc1C(C)(c1ccccc1)CC3 (configuration not stated)" class_label=f
molecule=COC(=O)c1cc2ccccc2s1 class_label=t
molecule=Cc1ccc2cnn(C)c2n1 class_label=f
molecule="Cc1ccc(C(=O)C(C)CN2CCCCC2)cc1 (configuration not stated)" class_label=f
molecule=Nc1ccc(S(=O)(=O)c2ccc(NC(=O)CCC(=O)O)cc2)cc1 class_label=f
molecule="OC(Cn1cncn1)(c1ccc(F)cc1)c1ccccc1F (configuration not stated)" class_label=f
molecule=CC(C)CI class_label=t
molecule=CCCCCC1CCCC1 class_label=t

**Q:** melting point under 100 °C? Item: CN(Cc1cc(Br)cc(Br)c1N)C1CCCCC1
**A:** f

**Q:** melting point under 100 °C? Item: CC(=O)Oc1ccc(N/C=C2\C(=O)C3(C)CCC2C3(C)C)cc1 (configuration not stated)
**A:** f
